Measured values drawn from patent US20250026849A1 for this set.

Assay target: T1, CD123 (Homo sapiens (Human), UniProt P26951 19-305, limits assumed)
T1 construct: The CD123 construct used in the ELISA is not described; also called CD123-Signal
T1 sequence: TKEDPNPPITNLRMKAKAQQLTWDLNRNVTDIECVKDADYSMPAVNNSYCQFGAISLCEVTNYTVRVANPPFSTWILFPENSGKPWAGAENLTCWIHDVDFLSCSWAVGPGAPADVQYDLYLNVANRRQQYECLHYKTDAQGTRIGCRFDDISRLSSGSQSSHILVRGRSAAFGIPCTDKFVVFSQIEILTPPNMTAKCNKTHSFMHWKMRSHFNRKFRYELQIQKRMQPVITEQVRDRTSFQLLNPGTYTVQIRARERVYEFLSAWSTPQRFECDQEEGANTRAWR
Procedure text: ELISA
Set-up: unit not given here
Readout: ELISA_avg

[
  {
    "Binder": "D domain of SEQ ID NO: 646 (designed binder) MGSWYEFMGRLEAIDERLQALGGSEAELAWFEHEIAEFEWSLQWYKGKGNPEVEALRFEAGAIPWELWAYRHN",
    "ELISA_avg": 3.5
  },
  {
    "Binder": "D domain of SEQ ID NO: 556 (designed binder) MGSWDEFKEDLAHIKTDLEALGGSEAELALFEDEIADFEMYLQHYKGKGNPEVEALRKEAAAIRDELQAYRHN",
    "ELISA_avg": 6.3
  }
]

The record that follows has no ELISA_avg shown yet.
Report ELISA_avg for D domain of SEQ ID NO: 485 (designed binder) MGSWTFFKWDLADIKANLEALGGSEAELAWFEEDLAGFEAELQEYKGKGNPEVEALRKEAAAIRDELQAYRHN please.
4.8
